- Tested on: SK-MEL-2
- measurement-description: NCI tumour cell line growth inhibition, 48 h
The source made the active and inactive calls. No stated cut-off is given here; in the data, active = GI50 up to about 1.1 µM and inactive = higher.
measure-name: GI50

Problem: Entry CCN1CC2=C(N=c3s/c(=C\c4ccc(Cl)cc4)c(=O)n3C2c2ccc(Cl)cc2)/C(=C/c2ccc(Cl)cc2)C1 (stereo not given) : reported GI50 = ?
Result: 26.6 µM (inactive)

Problem: Requested read-out: GI50. Entry: CN1CCn2c(Br)ccc2C1=O
Result: > 100 µM (inactive)

Problem: Value lookup for GI50; key = CCOC(=O)C1(C(=O)OCC)CC(=O)[C@@]2(C1)OCC[C@H]1OC(=O)C[C@H]12
Result: > 100 µM (inactive)

Problem: Sample OCn1nc2c(C3OCCO3)cc3ccccc3n2c1=S — what was its GI50?
Result: > 100 µM (inactive)

Problem: Return reported GI50; argument: CN(/N=C/c1ccnc2ccccc12)c1c([N+](=O)[O-])cc([N+](=O)[O-])cc1[N+](=O)[O-]
Result: 24.4 µM (inactive)
